Entries and their measured competition score follow.
Target: T1, insulin-like growth factor II (IGF-II), amino acids 1-67 (human, UniProt P01344 25-91)
T1 construct: recombinant; also called IGF-II (67aa); IGF2
T1 sequence (P01344 25-91): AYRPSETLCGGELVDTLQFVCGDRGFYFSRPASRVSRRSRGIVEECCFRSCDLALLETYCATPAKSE
Assay: SPR, IgG on Protein G', then ligand, then BP; competitor BP2; 0 = no significant competition, 5 = competes strongly
Only the number, expressed in score 0-5, is required.

Solved entries (count: 2):
{"binder": "M0064-E04 IgG (parental, non-germlined) (antibody, V domains shown) VH: EVQLLESGGGLVQPGGSLRLSCAASGFTFSVYDMNWVRQAPGKGLEWVSSISSSGGGTLYADSVKGRFTISRDNSKNTLYLQMNSLRAEDTAVYYCARDSDTSSYYWYYDLWGRGTLVTVSS VL: DIQMTQSPSSLSASVGDRVTITCQASHDISNYLNWYQQKPGKAPKLLIYAASRLQSGVPSRFSGGGSGTDFSLTISSLQAEDFATYYCQQSYSFPRTFGQGTNLEIK", "competition score, score 0-5": 5}
{"binder": "M0070-H08 IgG (parental) (antibody, V domains shown) VH: EVQLLESGGGLVQPGGSLRLSCAASGFTFSRYWMIWVRQAPGKGLEWVSSIRSSGETKYADSVKGRFTISRDNSKNTLYLQMNSLRAEDTAVYYCARGPLSDYYDSSGYYFDAFDIWGQGTMVTVSS VL: DIQMTQSPSSLSASAGDRVTITCRASQSISSYLNWYQQKPGKAPNLLIYTTSNLQGGVPSRFSGSGSGTDFTLTISSLQPEDFATYYCQQGYSFPLTFGGGTKVEIK", "competition score, score 0-5": 3}

Q. Report competition score for M0064-F02 IgG (parental, non-germlined) (antibody, V domains shown) VH: EVQLLESGGGLVQPGGSLRLSCAASGFTFSNYIMWWVRQAPGKGLEWVSVISSSGGMTRYADSVKGRFTISRDNSKNTLYLQMNSLRAEDTAVYYCARDNGDYVGEKGFDIWGQGTMVTVSS VL: DIQMTQSPSSLSASVGDRVTITCRASQSISNYLNWYQQKPGKAPKLLIYTASTLQSGVPSRFSGSASGTDFTLTINSLQPEDFATYSCQQSYNSPWTFGQGTKVEIK please.
A. 4
